assayed target: m-calpain (derived from porcine kidney) (Sus scrofa, UniProt I3LQD3)
Sequence (I3LQD3 entry or part of it): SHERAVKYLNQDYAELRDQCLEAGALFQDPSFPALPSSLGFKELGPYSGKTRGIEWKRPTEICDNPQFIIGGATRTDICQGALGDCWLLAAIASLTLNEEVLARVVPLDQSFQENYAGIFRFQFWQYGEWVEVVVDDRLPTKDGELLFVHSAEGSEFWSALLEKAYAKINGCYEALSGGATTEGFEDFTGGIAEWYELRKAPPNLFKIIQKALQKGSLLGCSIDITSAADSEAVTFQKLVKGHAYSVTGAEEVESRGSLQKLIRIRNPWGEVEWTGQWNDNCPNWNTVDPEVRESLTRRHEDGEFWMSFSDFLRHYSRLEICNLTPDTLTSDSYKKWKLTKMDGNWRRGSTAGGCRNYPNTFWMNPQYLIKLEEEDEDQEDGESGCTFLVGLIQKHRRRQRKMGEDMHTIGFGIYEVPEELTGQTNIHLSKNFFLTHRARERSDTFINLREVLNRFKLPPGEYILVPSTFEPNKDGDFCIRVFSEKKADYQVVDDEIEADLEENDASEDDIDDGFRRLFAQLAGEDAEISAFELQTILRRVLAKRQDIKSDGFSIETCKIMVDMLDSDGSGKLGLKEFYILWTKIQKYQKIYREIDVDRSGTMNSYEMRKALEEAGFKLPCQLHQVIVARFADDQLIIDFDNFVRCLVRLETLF
Sequence (P04574 whole entry, further chain): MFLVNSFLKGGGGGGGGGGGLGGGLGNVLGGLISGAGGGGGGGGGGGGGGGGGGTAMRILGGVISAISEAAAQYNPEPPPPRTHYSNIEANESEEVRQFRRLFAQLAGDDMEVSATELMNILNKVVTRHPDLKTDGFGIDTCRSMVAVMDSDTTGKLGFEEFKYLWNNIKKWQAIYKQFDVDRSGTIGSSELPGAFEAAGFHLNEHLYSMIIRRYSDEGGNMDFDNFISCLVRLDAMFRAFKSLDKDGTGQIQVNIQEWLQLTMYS
measurement notes: Measurement of inhibitory activity against m-calpain
Assay type: biochemical
applied conditions: casein substrate, 30° C., 60 minutes; read-out: enzyme inhibitory activities (μM) m-calpain
Measured IC50 values are reported for all entries that follow.
Be sure to follow the number with its unit.

Observe how each entry below is paired with its result.
Ask: Note down IC50 recorded for COCCOCCOC(=O)N[C@@H](CC(C)C)C(=O)N[C@@H](Cc1ccccc1)C(=O)C(=O)NC1CC1
Result: 0.1 µM

Ask: Note down IC50 recorded for COCCOCCOCCOCCOC(=O)N[C@@H](CC(C)C)C(=O)N[C@@H](Cc1ccccc1)C(=O)C(=O)NC1CC1
Result: 0.17 µM

We now examine a further compound.
Ask: Note down IC50 recorded for COCCOCCOCCOCCOCCOC(=O)N[C@@H](CC(C)C)C(=O)N[C@@H](Cc1ccccc1)C(=O)C(=O)NC1CC1
Result: 0.19 µM

---

metric name: melting point

Ask: Note down melting point recorded for CCNC(=O)C(=O)[C@H](Cc1ccccc1)NC(=O)[C@H](CC(C)C)NC(=O)OCCOC [compound 1]
Result: 138 to 138.3 °C

Ask: Note down melting point recorded for CCNC(=O)C(=O)[C@H](CCc1ccccc1)NC(=O)[C@H](CC(C)C)NC(=O)OCCOC [compound 13]
Result: 119.1 to 120.4 °C

Ask: Note down melting point recorded for COCCOCCOCCOCCOCCOC(=O)N[C@@H](CC(C)C)C(=O)N[C@@H](Cc1ccccc1)C(=O)C(=O)NC1CC1 [compound 20]
Result: 98.5 to 99.9 °C

Ask: Note down melting point recorded for CCNC(=O)C(=O)[C@H](Cc1ccccc1)NC(=O)[C@H](CC(C)C)NC(=O)O[C@H]1CCOC1 [compound 2]
Result: 158.9 to 160.7 °C

Ask: Note down melting point recorded for COCCOC(=O)N[C@@H](CC(C)C)C(=O)N[C@@H](Cc1ccccc1)C(=O)C(=O)NC1CC1 [compound 4]
Result: 112.4 to 113.5 °C

Ask: Note down melting point recorded for CCCNC(=O)C(=O)[C@H](Cc1ccccc1)NC(=O)[C@H](CC(C)C)NC(=O)OCCOC [compound 7]
Result: 108.8 to 109.9 °C

New cases:
Ask: Note down melting point recorded for COCCOC(=O)N[C@@H](CC(C)C)C(=O)N[C@@H](Cc1ccccc1)C(=O)C(=O)NC1Cc2ccccc2C1 [compound 11]
Result: 141.9 to 143.5 °C

Ask: Note down melting point recorded for CCNC(=O)C(=O)[C@H](CCc1ccccc1)NC(=O)[C@H](CC(C)C)NC(=O)O[C@H]1CCOC1 [compound 14]
Result: 111.9 to 114.5 °C

Ask: Note down melting point recorded for CCCCNC(=O)C(=O)[C@H](Cc1ccccc1)NC(=O)[C@H](CC(C)C)NC(=O)OCCOC [compound 9]
Result: 94 to 95.2 °C
